Taken from PubChem BioAssay.

# test: CREB reporter modulators under forskolin, primary screen, cell-based, PC12, CRE-LacZ reporter, forskolin-stimulated (AID 1146);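 note: PC12 cells with 6xCRE LacZ reporter stimulated by forskolin 10 µM; beta-galactosidase reporter signal reflecting CREB driven transcription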
# conditionsUsed: luminescence, 4.5 h, higher = more signal, called active from +8 up or from −8 down
Assign class by z-score: not lower than -0.9 means true; lower than -0.9 means false.

{"compound": "CCCNC(=O)[C@@]1(c2ccc([N+](=O)[O-])cc2)CC(=O)N(C2CCCCC2)[C@@H]1c1ccc(CO)cc1", "classLabel": "true"}
{"compound": "COc1ccc([Si](C)(C)[C@@H]2[C@@H](CC(=O)N3Cc4ccccc4C[C@H]3CO)O[C@]3(C(=O)N(C)c4ccccc43)[C@H]2C)cc1", "classLabel": "false"}
{"compound": "COCCCNC(=O)[C@]1(CCS(=O)(=O)c2ccccc2)N=C(c2ccc(OCCCO)cc2)O[C@@H]1c1ccccc1N=[N+]=[N-]", "classLabel": "false"}
{"compound": "CC(C)N1CC=CC23O[C@@H]4C=CCOC(=O)[C@@H]4[C@H]2C(=O)N(CCCO)[C@@H]3C1=O (stereo not given in full)", "classLabel": "false"}
{"compound": "C[C@@H]1NC(=O)[C@@]23C(=O)N[C@@H](Cc4ccccc4)C2[C@H](C)[C@@]2(C)O[C@H]2C3/C=C/C/C=C\\CNC(=O)[C@@H]2CCCN2C1=O (stereo not given in full)", "classLabel": "true"}
{"compound": "CCCCCCc1nc(C2CC2)cc2c1[Si](C(C)C)(C(C)C)O[C@H]2c1ccccc1", "classLabel": "true"}
{"compound": "Cc1ccc(S[C@]2(C(=O)NCC(F)(F)F)CC(=O)N(C3CCCCC3)[C@@H]2c2ccc(CO)cc2I)cc1", "classLabel": "true"}
{"compound": "NC(=O)N1C(=O)C2C(C1=O)C1C=C(CCCO)C2C(c2cccs2)N1Cc1cccc(OC(F)(F)F)c1 (stereo not given)", "classLabel": "true"}
{"compound": "O=c1n(-c2ccccc2)c(=O)n2n1CC(COc1ccccc1)=C([C@H](O)CCc1ccccc1)[C@@H]2CO", "classLabel": "true"}
{"compound": "COC(=O)[C@@]1(Cc2ccccc2)[C@H]2c3cc(C(=O)N(C)C)n(Cc4c(CO)[nH]cc(C)c4=O)c3C[C@H]2CN1C(=O)c1ccccc1", "classLabel": "true"}
{"compound": "Cc1ccc(S[C@]2(C(=O)NCCCN(C)C)CC(=O)N(C3CCCCC3)[C@@H]2c2ccc(CO)cc2)cc1", "classLabel": "true"}
{"compound": "COC(=O)c1cn(C[C@@H](Cc2ccccc2)NC(=O)N[C@H](CO)CCc2oc(C(C)=O)c(C(=O)OC)c2C(=O)OC)nn1", "classLabel": "false"}
{"compound": "C=C(/C(=C/C[C@H](OC(C)=O)c1cccc(OCCO)c1)c1cnc2ccccc2c1)C(C)C", "classLabel": "true"}
{"compound": "COc1cc(OC)c(C(O)C2C=CC3C(=O)N(c4ccccc4)C(=O)C3N2Nc2ccccc2)cc1Br (stereo not given)", "classLabel": "true"}
{"compound": "C[N+](C)(C)CCCC[C@@H]1NC(=O)[C@H]2C[C@@H](C(=O)NCCCCCCN)[C@@H](c3ccc(O)cc3)N2C1=O", "classLabel": "false"}
